# PROCEDURE TEXT: NCI Yeast Anticancer Drug Screen. Data for the mec2-1 strain (AID 157)
# RUN PARAMETERS: S. cerevisiae mec2-1 strain, at 50.0 µM (retest, dose inferred, filed as 5.0), active compounds read high
This is part of a sample that, as a whole, favours compounds with a hit. Of some 79,000 tested, about 15% had one in any assay. Where a SMILES comes first, the peptide text is derived from it. [ ]: non-standard residue; d: D form. The star is where a group is joined. mTyr = N[CH](Cc1cccc(O)c1)C(=O)O; Cbz = O=C(OCc1ccccc1)*; OBn = c1ccc(CO*)cc1
Entries annotated with measured growth inhibition
Please give a number only; it is taken to be in %.

[in] Fill in: growth inhibition of c1ccc(CC[n+]2csc3ccccc32)cc1 is ___
[out] 84

[in] Queued: CCCCN(CCCC)CC(=O)c1ccc2cc(Cl)c3ccccc3c2c1
[out] 93

[in] Queued: COC(=O)C(Cc1cccc(O)c1)NC(=O)C(CC(=O)OCc1ccccc1)NC(=O)OCc1ccccc1 (configuration not stated) (Cbz-Asp(OBn)-[mTyr]-OMe; configuration not given here)
[out] 21

[in] Queued: COc1ccc(CCN2C(=O)C(=O)N(C3CCCCC3)C2=O)cc1OC
[out] 0

[in] Queued: O=[N+]([O-])c1ccc(S(=O)(=O)Cc2ccccc2)c2nonc12
[out] 99

[in] Queued: Cc1c2ccccc2c(C)n2c1nc1cc(Cl)c(Cl)cc12
[out] 93

[in] Queued: CC12CCC3C(CCC4CC(O)CCC43C)C1CC=CO2 (configuration not stated)
[out] 99

[in] Queued: Cc1ccc(SCc2nc3ccccc3c(C)[n+]2[O-])cc1
[out] 86

[in] Queued: Clc1ccc2ccc3cccnc3c2n1
[out] 97

[in] Queued: OCC1(c2ccccc2)OC1c1ccccc1 (configuration not stated)
[out] -27

[in] Queued: Cc1ccc(S(=O)(=O)NCCCOS(=O)(=O)c2ccc(C)cc2)cc1
[out] 33

[in] Queued: CCOC(=O)C(Br)c1nc2ccccc2[nH]c1=O (configuration not stated)
[out] 81
